TARGET SYSTEM: human integrin α4β1 (overexpressed in LN18 α4β1 cells; pMSCV-hITGA4-IRES-hITGB1) (Homo sapiens, UniProt P05556+P13612)
Sequence (P13612 34-1032): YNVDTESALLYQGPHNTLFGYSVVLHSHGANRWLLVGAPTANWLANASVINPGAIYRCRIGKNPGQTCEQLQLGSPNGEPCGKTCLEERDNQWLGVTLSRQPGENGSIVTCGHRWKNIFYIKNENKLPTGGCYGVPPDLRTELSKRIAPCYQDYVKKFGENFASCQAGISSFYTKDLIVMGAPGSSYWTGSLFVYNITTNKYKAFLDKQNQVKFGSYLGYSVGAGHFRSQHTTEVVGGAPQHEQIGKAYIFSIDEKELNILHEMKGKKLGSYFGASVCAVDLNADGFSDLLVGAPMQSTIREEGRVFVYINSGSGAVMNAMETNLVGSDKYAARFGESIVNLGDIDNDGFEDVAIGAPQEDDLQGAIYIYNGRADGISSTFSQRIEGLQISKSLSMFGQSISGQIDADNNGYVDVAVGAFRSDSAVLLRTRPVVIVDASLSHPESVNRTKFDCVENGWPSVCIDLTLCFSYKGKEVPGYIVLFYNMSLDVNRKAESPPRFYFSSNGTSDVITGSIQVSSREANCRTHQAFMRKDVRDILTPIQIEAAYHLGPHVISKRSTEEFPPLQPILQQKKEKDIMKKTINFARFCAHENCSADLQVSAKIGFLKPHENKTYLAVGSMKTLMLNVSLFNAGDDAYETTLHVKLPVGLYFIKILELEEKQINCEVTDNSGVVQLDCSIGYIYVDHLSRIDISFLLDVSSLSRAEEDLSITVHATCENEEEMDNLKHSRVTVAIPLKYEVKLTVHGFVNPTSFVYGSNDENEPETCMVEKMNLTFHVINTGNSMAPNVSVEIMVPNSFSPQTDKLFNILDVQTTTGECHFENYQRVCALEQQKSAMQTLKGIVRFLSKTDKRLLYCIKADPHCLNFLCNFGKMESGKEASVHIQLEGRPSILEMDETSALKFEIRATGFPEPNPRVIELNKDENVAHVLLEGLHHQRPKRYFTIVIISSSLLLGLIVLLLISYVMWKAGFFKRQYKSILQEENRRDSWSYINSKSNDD
Sequence (P05556 21-798): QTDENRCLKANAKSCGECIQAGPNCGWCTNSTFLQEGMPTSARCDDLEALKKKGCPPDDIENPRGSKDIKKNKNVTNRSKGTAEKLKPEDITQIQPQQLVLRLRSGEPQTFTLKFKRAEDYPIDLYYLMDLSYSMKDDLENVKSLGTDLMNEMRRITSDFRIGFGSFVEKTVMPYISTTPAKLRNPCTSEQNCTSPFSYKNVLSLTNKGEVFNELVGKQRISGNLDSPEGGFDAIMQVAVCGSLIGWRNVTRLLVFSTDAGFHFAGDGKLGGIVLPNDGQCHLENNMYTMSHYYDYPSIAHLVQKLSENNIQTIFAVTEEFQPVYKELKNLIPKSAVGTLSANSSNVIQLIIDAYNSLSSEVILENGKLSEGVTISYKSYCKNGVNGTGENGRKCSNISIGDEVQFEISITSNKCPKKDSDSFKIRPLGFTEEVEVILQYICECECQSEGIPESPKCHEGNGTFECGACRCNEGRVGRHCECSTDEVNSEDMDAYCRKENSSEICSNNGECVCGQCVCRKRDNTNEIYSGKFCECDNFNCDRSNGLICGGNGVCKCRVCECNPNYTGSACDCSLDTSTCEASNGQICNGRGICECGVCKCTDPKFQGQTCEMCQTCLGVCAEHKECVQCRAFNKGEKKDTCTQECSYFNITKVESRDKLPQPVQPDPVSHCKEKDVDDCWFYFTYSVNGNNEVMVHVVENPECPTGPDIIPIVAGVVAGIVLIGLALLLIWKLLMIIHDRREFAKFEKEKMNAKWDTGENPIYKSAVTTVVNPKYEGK
EXPERIMENT SUMMARY: Competitive inhibition of R-BC154 (50 nM) binding to LN18 α4β1 cells by BOP, flow cytometry

{"columns": ["MOLECULE", "IC50 / nM"],
 "data": [
  ["O=C(O)[C@H](Cc1ccc(OC(=O)N2CCCC2)cc1)NC(=O)[C@@H]1CCCN1S(=O)(=O)c1ccccc1 [BOP (2)]", 2.39]
]}
